The values you see were collected from patent US10858348B2.

# protocol notes: physchem
# Type: physicochemical
# reported conditions: organic solvent or mixture
reported property: solubility

// lookup solubility for CC1(C)CC=C(c2nc(C3CC(C)(C)OC(C)(C)C3)ccc2NC(=O)c2nc(C#N)c[nH]2)CC1 [Compound A]
~130 mg/mL
